assayed-system: T1, 4H1348-bH
T1 chain: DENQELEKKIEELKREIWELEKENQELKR
experiment-notes: two-hybrid library CCNG1;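 further: natural log of median RNA to DNA barcode read ratio; higher means stronger binding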
experimental-readout: interaction score

1: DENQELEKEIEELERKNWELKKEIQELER [4H1081-bH]
2: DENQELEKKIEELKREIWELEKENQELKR [4H1348-bH]
3: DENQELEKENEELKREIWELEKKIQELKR [4H1222-bH]
4: DENQELEKKIEELERKNWELKKEIQELKR [4H1338-bH]
Q: Descending sort on interaction score required. Form entry: labels listed in requested order.
Ans: 4, 2, 3, 1
